The reported measurements were obtained from patent US20220177594A1.

- target-or-system: Feline_OSMR_hlgG1_Fc (feline)
- Sequence (chain, as listed by the source limits assumed, form in doubt): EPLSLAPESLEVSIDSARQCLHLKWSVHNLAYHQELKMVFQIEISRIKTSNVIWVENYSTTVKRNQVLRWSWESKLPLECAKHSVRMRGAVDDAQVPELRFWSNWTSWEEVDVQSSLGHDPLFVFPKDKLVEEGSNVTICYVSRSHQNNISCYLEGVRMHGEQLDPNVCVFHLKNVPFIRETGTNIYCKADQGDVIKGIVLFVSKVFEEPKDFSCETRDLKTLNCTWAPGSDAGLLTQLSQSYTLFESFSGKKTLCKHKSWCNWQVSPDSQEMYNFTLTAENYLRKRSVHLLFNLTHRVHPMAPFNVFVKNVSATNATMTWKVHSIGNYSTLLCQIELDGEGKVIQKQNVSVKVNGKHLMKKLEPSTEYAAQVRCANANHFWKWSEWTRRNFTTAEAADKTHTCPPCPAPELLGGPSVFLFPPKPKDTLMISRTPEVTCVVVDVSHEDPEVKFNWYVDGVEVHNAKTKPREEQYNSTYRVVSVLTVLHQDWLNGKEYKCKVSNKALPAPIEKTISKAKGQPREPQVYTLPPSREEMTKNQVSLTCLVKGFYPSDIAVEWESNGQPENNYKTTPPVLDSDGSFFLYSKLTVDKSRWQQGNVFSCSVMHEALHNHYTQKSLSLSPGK
- experimental-details: indirect ELISA, fOSMR coated; OD ratio to antibody expression control
measurement-label: ELISA ratio (OD ratio)
Field: numeric (OD ratio). Do not append units.

Some solved cases for reference:
Mu_02D09_VH (SEQ ID NO: 31)_R104A (antibody, V domains shown) VH: EVQLVESGGGLVKPGGSLTLSCAASGFTFSDYGMHWLRQAPEKGLEWVAYISSGSRAVFFADTVKGRFTISRDNAKNTLFLQMTSLRSDDTAMYYCARDRYDGAGFAYWGQGTLVTVSA VL: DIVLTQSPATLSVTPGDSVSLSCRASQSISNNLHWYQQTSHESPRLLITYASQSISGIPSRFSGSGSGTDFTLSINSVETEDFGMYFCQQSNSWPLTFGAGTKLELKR; 0
Mu_09E09_VL (SEQ ID NO: 37)_W96A (antibody, V domains shown) VH: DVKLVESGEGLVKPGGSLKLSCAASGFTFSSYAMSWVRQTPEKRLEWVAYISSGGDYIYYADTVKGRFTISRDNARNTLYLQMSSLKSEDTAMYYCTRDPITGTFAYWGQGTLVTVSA VL: DLQMTQTTSSLSASLGDRVTISCRASQDINNYLNWYQQKPDGTVKLLIYYTSTLHSGVPSRFSGSGSGTDYSLTISNLEQEDIATYFCQQGNTLPATFGGGTKLEIKR; 0
Mu_19F07_VH (SEQ ID NO: 47)_Y59A (antibody, V domains shown) VH: EVKLVESEGGLVQPGSSMKLSCTASGFTFSDYYMAWVRQVPEKGLEWVANINYDGSSTAYLDSLKSRFIISRDNAKNILYLQMSSLKSEDTATYYCARGLTWDFDVWGTGTTVTVSS VL: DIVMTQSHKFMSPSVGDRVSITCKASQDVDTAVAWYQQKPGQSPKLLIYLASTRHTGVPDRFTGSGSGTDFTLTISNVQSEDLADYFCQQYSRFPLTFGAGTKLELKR; 0.74
Mu_09E09_VH (SEQ ID NO: 35)_S35A (antibody, V domains shown) VH: DVKLVESGEGLVKPGGSLKLSCAASGFTFSSYAMAWVRQTPEKRLEWVAYISSGGDYIYYADTVKGRFTISRDNARNTLYLQMSSLKSEDTAMYYCTRDPITGTFAYWGQGTLVTVSA VL: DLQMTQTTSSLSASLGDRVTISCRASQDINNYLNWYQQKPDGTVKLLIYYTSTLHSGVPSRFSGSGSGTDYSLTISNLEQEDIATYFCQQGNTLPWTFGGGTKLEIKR; 1.05
Mu_02D09_VL (SEQ ID NO: 33)_S56A (antibody, V domains shown) VH: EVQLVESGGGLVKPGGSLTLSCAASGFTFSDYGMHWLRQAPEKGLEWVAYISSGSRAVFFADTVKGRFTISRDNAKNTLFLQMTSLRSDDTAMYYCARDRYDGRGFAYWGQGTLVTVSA VL: DIVLTQSPATLSVTPGDSVSLSCRASQSISNNLHWYQQTSHESPRLLITYASQSIAGIPSRFSGSGSGTDFTLSINSVETEDFGMYFCQQSNSWPLTFGAGTKLELKR; 0
Mu_09E09_VH (SEQ ID NO: 35)_Y50A (antibody, V domains shown) VH: DVKLVESGEGLVKPGGSLKLSCAASGFTFSSYAMSWVRQTPEKRLEWVAAISSGGDYIYYADTVKGRFTISRDNARNTLYLQMSSLKSEDTAMYYCTRDPITGTFAYWGQGTLVTVSA VL: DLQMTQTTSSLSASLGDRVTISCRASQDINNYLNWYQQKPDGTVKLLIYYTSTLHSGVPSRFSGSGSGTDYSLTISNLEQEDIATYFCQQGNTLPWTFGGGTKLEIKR; 0.31
Mu_19F07_VL (SEQ ID NO: 49)_L50A (antibody, V domains shown) VH: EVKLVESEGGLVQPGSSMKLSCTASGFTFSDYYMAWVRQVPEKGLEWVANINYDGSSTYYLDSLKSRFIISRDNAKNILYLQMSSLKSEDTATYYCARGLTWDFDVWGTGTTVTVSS VL: DIVMTQSHKFMSPSVGDRVSITCKASQDVDTAVAWYQQKPGQSPKLLIYAASTRHTGVPDRFTGSGSGTDFTLTISNVQSEDLADYFCQQYSRFPLTFGAGTKLELKR; 1.11
Mu_10F07_VL (SEQ ID NO: 41)_W96A (antibody, V domains shown) VH: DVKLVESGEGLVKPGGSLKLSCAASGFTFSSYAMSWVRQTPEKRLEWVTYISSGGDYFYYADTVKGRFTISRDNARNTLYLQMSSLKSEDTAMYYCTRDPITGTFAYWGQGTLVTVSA VL: DIQMTQTTSSLSASLGDRVTISCRASQDITNYLNWYQQKPDGTVKLLIYYTSTLHSGVPSRFSGSGSGTDFSLTISNLEQEDIATYFCQQGHMLPATFGGGTKLEIKR; 0.134

Form: binder = Mu_09E09_VL (SEQ ID NO: 37)_Q90A (antibody, V domains shown) VH: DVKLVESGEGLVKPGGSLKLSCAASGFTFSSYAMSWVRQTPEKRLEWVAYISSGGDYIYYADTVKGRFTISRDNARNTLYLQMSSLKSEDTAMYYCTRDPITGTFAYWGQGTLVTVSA VL: DLQMTQTTSSLSASLGDRVTISCRASQDINNYLNWYQQKPDGTVKLLIYYTSTLHSGVPSRFSGSGSGTDYSLTISNLEQEDIATYFCQAGNTLPWTFGGGTKLEIKR ; ELISA ratio = 0.183

For Mu_10F07_VL (SEQ ID NO: 41)_T53A (antibody, V domains shown) VH: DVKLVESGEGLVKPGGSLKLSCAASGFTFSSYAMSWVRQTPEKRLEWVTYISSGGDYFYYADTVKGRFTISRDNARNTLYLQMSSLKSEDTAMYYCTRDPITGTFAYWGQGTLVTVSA VL: DIQMTQTTSSLSASLGDRVTISCRASQDITNYLNWYQQKPDGTVKLLIYYTSALHSGVPSRFSGSGSGTDFSLTISNLEQEDIATYFCQQGHMLPWTFGGGTKLEIKR the binder record lists ELISA ratio as 0.217
